// combination Emax lookup, one value per entry
# Test system: PA-TU-8988T (Pancreatic Carcinoma)
# Measurement Notes: combination Emax (second highest fraction inhibited in the dose matrix, 72 h); higher = more inhibition; extreme values may be limits of the assay

Molecule	combination Emax
C[C@@H](c1ccc2nccn2c1)n1nnc2ncc(-c3cnn(C)c3)nc21 [Savolitinib] + CN(CC[C@H](CSC1=CC=CC=C1)NC2=C(C=C(C=C2)S(=O)(=O)NC(=O)C3=CC=C(C=C3)N4CCC(CC4)[C@H](C5=CC=CC=C5C6=CC=C(C=C6)Cl)O)S(=O)(=O)C(F)(F)F)CCO [AZD4320] (first compound max 1 µM, 7x7, partner max 1 µM)	0.191
Cc1c2c(nn1C)CSCc1cc(n(C)n1)CSc1cc(c3ccccc3c1)OCCCc1c(C(=O)O)n(C)c3c-2c(Cl)ccc13 [AZD5991] + C=CCn1c(=O)c2cnc(Nc3ccc(N4CCN(C)CC4)cc3)nc2n1-c1cccc(C(C)(C)O)n1 [AZD1775] (first compound max 1 µM, partner max 1 µM)	0.891
NC1(C(=O)N[C@@H](CCO)c2ccc(Cl)cc2)CCN(c2ncnc3[nH]ccc23)CC1 [Capivasertib] + C[C@@H]1COCCN1C2=NC(=NC(=C2)C3(CC3)[S@](=N)(=O)C)C4=C5C=CNC5=NC=C4 [AZD6738] (first compound max 10 µM, 7x7, partner max 10 µM)	0.625
COc1cccc(OCCCN)c1-c1cc(Nc2cnc(C#N)cn2)n[nH]1 [Prexasertib] + CCc1c2c(nc3ccc(O)cc13)-c1cc3c(c(=O)n1C2)COC(=O)[C@]3(O)CC [SN-38] (first compound max 1 µM, 7x7, partner max 0.3 µM)	0.921
Cc1cc2ncnn2cc1Nc1ncc2c(n1)n(C1CCOCC1)c(=O)n2C [AZD7648] + CN(C)CCCOc1ccc(-c2ccc3ncc4c(c3c2)n(C2CCOCC2)c(=O)n4C)cn1 [AZD0156] (first compound max 10 µM, 7x7, partner max 1 µM)	0.271
COc1cc2c(cc1OCCCCCOc1cc3c(cc1OC)C(=O)N1C=C(C)C[C@H]1C=N3)N=C[C@@H]1CC(C)=CN1C2=O [SG3199] + O=C(c1cc(Cc2n[nH]c(=O)c3ccccc23)ccc1F)N1CCN(C(=O)C2CC2)CC1 [Olaparib] (first compound max 0.001 µM, 7x7, partner max 10 µM)	0.206
CN(CCO)CC[C@H](CSc1ccccc1)Nc1ccc(S(=O)(=O)NC(=O)c2ccc(N3CCC([C@@H](O)c4ccccc4-c4ccc(Cl)cc4)CC3)cc2)cc1S(=O)(=O)C(F)(F)F [AZD4320] + C[C@@H](Nc1cc(F)cc(F)c1)c1cc(C(=O)N(C)C)cc2c(=O)cc(N3CCOCC3)oc12 [AZD8186] (first compound max 1 µM, 7x7, partner max 3 µM)	0.437
